- Test system: Escherichia coli
- method-notes: Antimicrobial activity against Escherichia coli MTCC 443 by broth microdilution technique
- Type: functional
recorded-endpoint: MIC50 (µg/mL)
One number for each entry, in µg/mL.

                               given_smiles  measured_number
0  O/N=C(/c1cnn(-c2ccc(F)c(F)c2)c1)c1cc(Br)ccc1O              200
1  Cc1ccc(/C(=N\O)c2cnn(-c3ccc(F)c(F)c3)c2)c(O)c1               25

Hey, quick one: what's MIC50 for each of these?
1. Cc1ccc(O)c(C(=O)c2cnn(-c3ccc(F)c(F)c3)c2)c1
2. Fc1ccc2oc(-c3cnn(-c4ccc(F)c(F)c4)c3)nc2c1
3. O=C(c1cnn(-c2ccc(F)c(F)c2)c1)c1cc(F)cc(Cl)c1O
4. Cc1cc(C)c(O)c(C(=O)c2cnn(-c3ccc(F)c(F)c3)c2)c1
5. Fc1ccc(-n2cc(-c3nc4cc(Cl)ccc4o3)cn2)cc1F
6. O/N=C(/c1cnn(-c2ccc(F)c(F)c2)c1)c1cc(F)ccc1O
7. O=C(N[C@H](CO)[C@H](O)c1ccc([N+](=O)[O-])cc1)C(Cl)Cl
8. O/N=C(/c1cnn(-c2ccc(F)c(F)c2)c1)c1ccccc1O

-- reply
500
250
500
500
100
500
50
500
